These measurements were taken from patent US11584744B2.

Tested on: C. parvum
Assay: C. parvum growth inhibition
Assay type: cell-based, Cryptosporidium parvum
Details: Cryptosporidium parvum; read-out: (J) C. parvum EC50
Please provide measured pEC50 for the entries that follow.
Entry type: numeric. Quantity: pEC50, the -log10 of concentration in molar units.

Look at this compound and give its reported pEC50. `COc1ccc(-c2cccc3nc(Cc4nc5nc(F)ccc5[nH]4)cn23)c(Cl)c1` 6.01

Look at this compound and give its reported pEC50. CC(=O)N1CCC(Cn2c(Cc3ccc(Cl)cc3Cl)cn(Cc3nc4nc(F)ccc4[nH]3)c2=O)C(F)(F)C1 (stereo not shown) 5.74

Look at this compound and give its reported pEC50. `COc1ccc(Cc2cn(Cc3nc4nc(Br)ccc4[nH]3)c(=O)n2CC(F)F)c(Cl)c1` 6.51

---

Please provide measured pIC50 for the entries that follow.
Target: MetRS (C. parvum) (Cryptosporidium parvum, UniProt Q5CVN0)
Sequence (Q5CVN0 entry or part of it): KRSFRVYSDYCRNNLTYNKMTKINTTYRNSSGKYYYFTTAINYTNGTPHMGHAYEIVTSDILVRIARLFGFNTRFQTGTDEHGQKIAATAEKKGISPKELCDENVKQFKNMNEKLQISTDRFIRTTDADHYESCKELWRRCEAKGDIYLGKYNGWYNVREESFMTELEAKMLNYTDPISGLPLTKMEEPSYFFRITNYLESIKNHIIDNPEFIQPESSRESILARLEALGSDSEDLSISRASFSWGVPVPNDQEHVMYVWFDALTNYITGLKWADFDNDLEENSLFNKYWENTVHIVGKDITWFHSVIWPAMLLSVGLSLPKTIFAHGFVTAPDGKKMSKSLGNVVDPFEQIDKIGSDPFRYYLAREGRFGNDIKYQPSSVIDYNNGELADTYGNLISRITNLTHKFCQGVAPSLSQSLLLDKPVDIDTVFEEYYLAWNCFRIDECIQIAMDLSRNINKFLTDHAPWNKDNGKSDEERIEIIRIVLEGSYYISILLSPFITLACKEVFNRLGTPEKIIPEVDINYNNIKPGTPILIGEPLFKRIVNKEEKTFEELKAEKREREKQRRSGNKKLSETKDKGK
Test: MetRS (C. parvum) enzyme inhibition
Assay type: biochemical
Conditions: read-out: (C) MetRS (C. parvum) IC50
pIC50: −log10 of the molar value.

Look at this compound and give its reported pIC50. C[S+]([O-])c1nc(Cc2ccc(Cl)cc2Cl)cn1Cc1nc2ccc(F)nc2[nH]1 (stereo not shown) [Compound 2120] > 7.40

Look at this compound and give its reported pIC50. COc1ccc(-c2cccn3c(S(C)(=O)=O)c(Cc4nc5nc(Cl)ccc5[nH]4)nc23)c(Cl)c1 [Compound 2151] 6.21

Look at this compound and give its reported pIC50. COc1ccc(-c2cccc3c2CN(Cc2nc4c(C#N)c(Cl)ccc4[nH]2)C3=O)c(Cl)c1 [Compound 2233] > 7.40

Look at this compound and give its reported pIC50. COc1ccc(-c2ccc(NC(C)=O)c3nc(Cc4nc5nc(Cl)ccc5[nH]4)cn23)c(Cl)c1 [Compound 2169] > 7.40

Look at this compound and give its reported pIC50. COc1ccc(-c2cccc3c2CN(Cc2nc4nc(Cl)ccc4[nH]2)C3)c(Cl)c1 [Compound 2224] > 7.40

Look at this compound and give its reported pIC50. COc1ccc(Cc2cn(Cc3nc4nc(Cl)ccc4[nH]3)c(=O)n2CC(C)(C)N)c(Cl)c1 [Compound 2208] > 7.40

Look at this compound and give its reported pIC50. CCCn1c(Cc2ccc(Cl)cc2Cl)cn(Cc2nc3ccc(Cl)nc3[nH]2)c1=O [Compound 2079] > 7.40

Look at this compound and give its reported pIC50. CCOc1ccc(-c2cccc3nc(Cc4nc5nc(Cl)ccc5[nH]4)cn23)c(Cl)c1 [Compound 2164] < 6.00

Look at this compound and give its reported pIC50. CCn1c(Cc2ccc(Cl)cc2Cl)cn(CCc2nc3ccc(F)nc3[nH]2)c1=O [Compound 2121] 6.32

Look at this compound and give its reported pIC50. COc1cc(-c2cccc3nc(Cc4nc5nc(F)ccc5[nH]4)cn23)c(Cl)cc1Cl [Compound 2129] > 7.40

Look at this compound and give its reported pIC50. CSc1ncc(Cc2ccc(Cl)cc2Cl)n1Cc1nc2nc(Cl)ccc2[nH]1 [Compound 2113] < 6.00

Look at this compound and give its reported pIC50. Cc1ccc(-c2cccc3nc(Cc4nc5nc(Cl)ccc5[nH]4)cn23)c(Cl)c1 [Compound 2165] 6.49

Look at this compound and give its reported pIC50. CCn1c(C(=O)c2ccc(Cl)cc2Cl)cn(Cc2nc3ccc(Cl)nc3[nH]2)c1=O [Compound 2203] 7.00

Look at this compound and give its reported pIC50. COc1cc(Cl)c(Cc2cn(Cc3nc4ccc(Cl)nc4[nH]3)c([S+](C)[O-])n2)cc1OC (stereo not shown) [Compound 2241] > 7.40

Look at this compound and give its reported pIC50. COc1ccc(-c2cccc3c2CN(Cc2nc4nc(C)nc(N)c4[nH]2)C3=O)c(Cl)c1 [Compound 2251] > 7.40

Look at this compound and give its reported pIC50. COc1cc(Cl)c(-c2nccc3nc(Cc4nc5c(Cl)c(Cl)ccc5[nH]4)cn23)cc1OC [Compound 2255] 6.56

Look at this compound and give its reported pIC50. CCn1c(Cc2ccc(OC)cc2Cl)cn(Cc2nc3nc(Cl)ccc3[nH]2)c1=O [Compound 2093] > 7.40

Look at this compound and give its reported pIC50. COc1ccc(-c2cccn3cc(Cc4nc5nc(F)ccc5[nH]4)nc23)c(Cl)c1 [Compound 2148] 6.00

Look at this compound and give its reported pIC50. COc1ccc(-c2ccc(NC(C)=O)c3nc(Cc4nc5nc(Br)ccc5[nH]4)cn23)c(Cl)c1 [Compound 2184] > 7.40

Look at this compound and give its reported pIC50. COc1ccc(-c2cccc3c2CN(Cc2nc4cc(Cl)ccc4[nH]2)C3=O)c(Cl)c1 [Compound 2232] 7.27

Look at this compound and give its reported pIC50. Clc1ccc(-c2cccc3nc(Cc4nc5nc(Cl)ccc5[nH]4)cn23)c(Cl)c1 [Compound 2134] 7.23

Look at this compound and give its reported pIC50. CCn1c(Cc2ccc(Cl)cc2Cl)cn(Cc2nc3ccc(Cl)c(C#N)c3[nH]2)c1=O [Compound 2210] > 7.40

Look at this compound and give its reported pIC50. C#CCn1c(Cc2ccc(Cl)cc2Cl)cn(Cc2nc3ccc(F)nc3[nH]2)c1=O [Compound 2085] > 7.40

Look at this compound and give its reported pIC50. Clc1ccc(Cc2cn(Cc3nc4nc(Cl)ccc4[nH]3)c(SCc3ccccn3)n2)c(Cl)c1 [Compound 2157] 6.97

Look at this compound and give its reported pIC50. CCn1c(Cc2ccc(Cl)cc2Cl)cn(C(C)c2nc3nc(F)ccc3[nH]2)c1=O (stereo not shown) [Compound 2143] 7.02

Look at this compound and give its reported pIC50. COc1ccc(-n2ccc(=O)c3cc(F)c(Cc4nc5nc(Cl)ccc5[nH]4)cc32)c(Cl)c1 [Compound 2178] 6.06

Look at this compound and give its reported pIC50. COc1ccc(-c2ccc(NS(C)(=O)=O)c3nc(Cc4nc5nc(Cl)ccc5[nH]4)cn23)c(Cl)c1 [Compound 2174] > 7.40

Look at this compound and give its reported pIC50. COc1ccc(-c2ccc(NC(C)=O)c3nc(Cc4nc5cc(Cl)ccc5[nH]4)cn23)c(Cl)c1 [Compound 2180] > 7.40

Look at this compound and give its reported pIC50. COc1ccc(-c2cccc3nc(Cc4nc5nc(F)ccc5[nH]4)cn23)c(Cl)c1 [Compound 2122] > 7.40

Look at this compound and give its reported pIC50. COC(=O)Cn1c(C(O)c2ccc(Cl)cc2Cl)cn(Cc2nc3ccc(Cl)nc3[nH]2)c1=O (stereo not shown) [Compound 2217] 7.23

Look at this compound and give its reported pIC50. COc1ccc(-c2cnn3c2CN(Cc2nc4nc(F)ccc4[nH]2)CC3)c(Cl)c1 [Compound 2170] > 7.40

---

System: S. aureus MRSA (ATCC 33591)
Test: MIC susceptibility testing
Type: cell-based, Staphylococcus aureus
Settings: Staphylococcus aureus, MRSA ATCC33591; read-out: (G) MRSA (ATCC33591) MIC
Please provide measured log10 MIC for the entries that follow.
All values: log10 MIC [µg/mL].

Look at this molecule and give its reported log10 MIC. `O=c1n(Cc2nc3ccc(F)nc3[nH]2)cc(Cc2ccc(Cl)cc2Cl)n1CC1CCOCC1` 0.22

Look at this molecule and give its reported log10 MIC. `CCn1c(Cc2ccc(Cl)cc2Cl)cn(Cc2nc3ccc(Cl)nc3[nH]2)c1=O` 0.13

Look at this molecule and give its reported log10 MIC. `CCn1c(Cc2ccc(Cl)cc2Cl)cn(Cc2nc3ccc(Cl)c(C#N)c3[nH]2)c1=O` -0.53

Look at this molecule and give its reported log10 MIC. `O=c1n(Cc2nc3nc(F)ccc3[nH]2)cc(Cc2ccc(Cl)cc2Cl)n1CC(F)F` -0.51

Look at this molecule and give its reported log10 MIC. `CC(C)n1c(Cc2ccc(Cl)cc2Cl)cn(Cc2nc3ccc(F)nc3[nH]2)c1=O` 0.15

Look at this molecule and give its reported log10 MIC. `O=c1n(Cc2nc3ccc(Cl)nc3[nH]2)cc(Cc2ccc(Cl)cc2Cl)n1CCO` -0.28

Look at this molecule and give its reported log10 MIC. `CC(C)(O)Cn1c(Cc2ccc(Cl)cc2Cl)cn(Cc2nc3ccc(Cl)nc3[nH]2)c1=O` -0.31

Look at this molecule and give its reported log10 MIC. `CCNC(=O)Cn1c(C(=O)c2ccc(Cl)cc2Cl)cn(Cc2nc3nc(Cl)ccc3[nH]2)c1=O` -0.32

Look at this molecule and give its reported log10 MIC. `COc1cc(Cl)c(Cc2cn(Cc3nc4nc(Cl)ccc4[nH]3)c(=O)n2CC(C)(C)O)cc1OC` -1.24

Look at this molecule and give its reported log10 MIC. `COC(=O)Nc1ccc(-c2ccc(OC)cc2Cl)n2cc(Cc3nc4ccc(Cl)cc4[nH]3)nc12` -0.09

Look at this molecule and give its reported log10 MIC. CCn1c(C(O)c2ccc(Cl)cc2Cl)cn(Cc2nc3nc(Cl)ccc3[nH]2)c1=O (stereo not shown) -0.53

Look at this molecule and give its reported log10 MIC. `COc1cc(Cl)c(-c2cccc3nc(Cc4nc5nc(Cl)ccc5[nH]4)cn23)cc1OC` -1.48

Look at this molecule and give its reported log10 MIC. `COc1ccc(-c2cccc3c2CN(Cc2nc4cc(Cl)ccc4[nH]2)C3=O)c(Cl)c1` -0.35

Look at this molecule and give its reported log10 MIC. `COc1cc(Cl)c(-c2cnn3c2CN(Cc2nc4nc(Cl)ccc4[nH]2)CC3)cc1OC` -0.58

Look at this molecule and give its reported log10 MIC. `COc1ccc(Cc2cn(Cc3nc4nc(Br)ccc4[nH]3)c(=O)n2CC(F)F)c(Cl)c1` -0.06

Look at this molecule and give its reported log10 MIC. `COc1cc(Cl)c(-c2nccc3nc(Cc4nc5c(Cl)c(Cl)ccc5[nH]4)cn23)cc1OC` 0.26

Look at this molecule and give its reported log10 MIC. `COc1cc(Cl)c(-c2nccc3nc(Cc4nc5nc(Cl)ccc5[nH]4)cn23)cc1OC` -0.94

Look at this molecule and give its reported log10 MIC. `CCCn1c(Cc2ccc(Cl)cc2Cl)cn(Cc2nc3nc(F)ccc3[nH]2)c1=O` -0.35

Look at this molecule and give its reported log10 MIC. `COc1ccc(-c2ccc(NS(C)(=O)=O)c3nc(Cc4nc5nc(Cl)ccc5[nH]4)cn23)c(Cl)c1` -0.50

Look at this molecule and give its reported log10 MIC. `COc1ccc(-c2cccc3c2CN(Cc2nc4c(C#N)c(Cl)ccc4[nH]2)C3=O)c(Cl)c1` -0.73

Look at this molecule and give its reported log10 MIC. `O=c1n(Cc2nc3ccc(Cl)nc3[nH]2)cc(Cc2ccc(Cl)cc2Cl)n1CC(F)F` -0.26

Look at this molecule and give its reported log10 MIC. `COc1ccc(-c2ccc(N)c3nc(Cc4nc5nc(Cl)ccc5[nH]4)cn23)c(Cl)c1` 0.27

Look at this molecule and give its reported log10 MIC. `O=C(c1cn(Cc2nc3ccc(Cl)nc3[nH]2)c(=O)[nH]1)c1ccc(Cl)cc1Cl` -0.15

Look at this molecule and give its reported log10 MIC. `COc1ccc(-c2cncc3nc(Cc4nc5nc(Cl)ccc5[nH]4)cn23)c(Cl)c1` -0.55

Look at this molecule and give its reported log10 MIC. `COc1ccc(Cc2cn(Cc3nc4nc(Cl)ccc4[nH]3)c(=O)n2CC(C)(C)O)c(Cl)c1` -0.48
